Hey, just so you know, these numbers are from patent US9556201B2.

Below, each entry is listed alongside its reported EC1.5 (concentration giving 1.5-fold activation).
# System tested: SIRT1 (Homo sapiens)
# Test name: Mass spectrometry based assay to identify modulators of SIRT1 activity (deacetylation of p53-based acetylated peptide substrate)
# Assay type: biochemical
Measurement label: EC1.5 (concentration giving 1.5-fold activation)

>>> df
                                   compound            result
0  O=C(Nc1ccncc1)N1CCOc2cnc(-c3cccc(N4CCOCC4)c3)nc21  1000 to 25000 nM
1  O=C(Nc1cccc(OC[C@H](O)CO)n1)N1CCCc2ccc(-c3ccc4c(c3)CCO4)nc21         < 1000 nM
2  Cn1cc(NC(=O)N2CCCOc3ccc(-c4cccc(Cl)c4)nc32)cn1  1000 to 25000 nM
3  O=C(Nc1ccncn1)N1CCCCc2ccc(-c3cccc(C(F)(F)F)c3)nc21  1000 to 25000 nM
4  Cc1cc(NC(=O)N2CCCC(F)(F)c3ccc(-c4cccc(Cl)c4)nc32)ccn1  1000 to 25000 nM
5  O=C(Nc1ccncc1)N1CCOc2cnc(-c3cccc(Cl)c3)nc21  1000 to 25000 nM
6  O=C(Nc1cc(OCC(O)CO)ccn1)N1CCC(F)(F)c2ccc(-c3cccc(C(F)(F)F)c3)nc21 (stereo not shown)         < 1000 nM

---

# System tested: SIRT1 (Homo sapiens)
# Sequence (Q96EB6 1-747): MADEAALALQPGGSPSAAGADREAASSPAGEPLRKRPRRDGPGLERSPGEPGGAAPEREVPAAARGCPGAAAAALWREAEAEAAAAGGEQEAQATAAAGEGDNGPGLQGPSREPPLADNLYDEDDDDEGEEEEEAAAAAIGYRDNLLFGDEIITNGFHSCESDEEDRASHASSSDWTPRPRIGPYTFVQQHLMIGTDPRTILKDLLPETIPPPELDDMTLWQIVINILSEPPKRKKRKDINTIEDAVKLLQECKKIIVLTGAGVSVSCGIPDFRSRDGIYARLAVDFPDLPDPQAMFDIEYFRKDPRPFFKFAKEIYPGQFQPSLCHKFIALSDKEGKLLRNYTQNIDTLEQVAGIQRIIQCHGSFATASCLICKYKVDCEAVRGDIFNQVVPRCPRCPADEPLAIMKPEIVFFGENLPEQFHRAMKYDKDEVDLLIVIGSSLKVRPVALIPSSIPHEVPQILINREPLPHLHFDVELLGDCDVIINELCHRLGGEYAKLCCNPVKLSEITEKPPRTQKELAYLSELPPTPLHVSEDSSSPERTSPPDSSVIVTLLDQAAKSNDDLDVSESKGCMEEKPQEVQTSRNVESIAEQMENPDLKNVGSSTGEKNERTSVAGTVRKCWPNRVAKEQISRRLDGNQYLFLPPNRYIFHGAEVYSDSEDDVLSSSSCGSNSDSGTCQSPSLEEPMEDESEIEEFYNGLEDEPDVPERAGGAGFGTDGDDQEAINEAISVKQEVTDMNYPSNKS
# Test name: Mass spectrometry based assay to identify modulators of SIRT1 activity (deacetylation of p53-based acetylated peptide substrate)
# Type: biochemical
# Condition info: 25 min, SIRT1 activation, read-out: % FOLD ACT. (percent maximum fold activation)
Measurement label: Emax

>>> df
                                    compound         system_tested  result
 0  CC1(C)CCN(C(=O)Nc2ccnc(OC[C@H](O)CO)n2)c2nc(-c3cccc(C(F)(F)F)c3)ccc21 [Compound 845]  SIRT1 (Homo sapiens)  > 200%
 1  Cc1cncc(NC(=O)N2CC(C)(C)Oc3ccc(-c4cccc(N(C)C)c4)nc32)c1 [Compound 593]  SIRT1 (Homo sapiens)  > 200%
 2  O=C(Nc1ccccn1)N1CCCCc2ccc(-c3cccc(Cl)c3)nc21 [Compound 754]  SIRT1 (Homo sapiens)  ≤ 200%
 3  CC1(C)CCN(C(=O)Nc2ccccn2)c2nc(-c3cccc(Cl)c3)ccc2C1=O [Compound 783]  SIRT1 (Homo sapiens)  ≤ 200%
 4  Cc1cncc(NC(=O)N2CCCc3ccc(-c4cccc(C(F)(F)F)c4)nc32)c1 [Compound 585]  SIRT1 (Homo sapiens)  > 200%
 5  Cc1cc(NC(=O)N2CCCOc3ccc(-c4cccc(F)c4)nc32)ccn1 [Compound 582]  SIRT1 (Homo sapiens)  > 200%
 6  Cc1cc(-c2ccc3c(n2)N(C(=O)Nc2cc(C)nc(C)c2)CCCO3)ccn1 [Compound 657]  SIRT1 (Homo sapiens)  > 200%
 7  O=C1CCCN(C(=O)Nc2cccnc2)c2nc(-c3cccc(Cl)c3)ccc21 [Compound 747]  SIRT1 (Homo sapiens)  > 200%
 8  Cc1cc(NC(=O)N2CCOc3ccc(-c4cnn(C)c4C)nc32)cc(C)n1 [Compound 572]  SIRT1 (Homo sapiens)  > 200%
 9  O=C(Nc1ccnc(OC[C@@H](O)CO)n1)N1CCOc2ccc(-c3cccc(C(F)(F)F)c3)nc21 [Compound 732]  SIRT1 (Homo sapiens)  ≤ 200%
10  Cc1cncc(NC(=O)N2CC(C)(C)Oc3ccc(-c4cccc(N5CC[C@H](F)C5)c4)nc32)c1 [Compound 660]  SIRT1 (Homo sapiens)  > 200%
11  Cc1nn(C)c(C)c1NC(=O)N1CCCOc2ccc(-c3cccc(Cl)c3)nc21 [Compound 879]  SIRT1 (Homo sapiens)  ≤ 200%
12  O=C(Nc1ncccn1)N1CCCOc2ccc(-c3cccc(C(F)(F)F)c3)nc21 [Compound 643]  SIRT1 (Homo sapiens)  > 200%
13  Cc1cc(NC(=O)N2CCCOc3ccc(-c4cccc(N5CCCC5)c4)nc32)ccn1 [Compound 614]  SIRT1 (Homo sapiens)  > 200%
14  O=C1CCCN(C(=O)Nc2ccccn2)c2nc(-c3cccc(C(F)(F)F)c3)ccc21 [Compound 819]  SIRT1 (Homo sapiens)  > 200%
15  Cc1cc(-c2cccc(Cl)c2)nc2c1OCCN2C(=O)Nc1cccc(OCC(O)CO)n1 (centres unmarked) [Compound 691]  SIRT1 (Homo sapiens)  > 200%
16  Cc1cccc(-c2ccc3c(n2)N(C(=O)Nc2ccncn2)CCO3)c1 [Compound 517]  SIRT1 (Homo sapiens)  > 200%
17  Cc1csc(NC(=O)N2CCCOc3ccc(-c4cccc(C(F)(F)F)c4)nc32)n1 [Compound 578]  SIRT1 (Homo sapiens)  > 200%
18  Cc1cc(NC(=O)N2CC(C)(C)Oc3ccc(-c4cccc(N(C)C)c4)nc32)cc(C)n1 [Compound 597]  SIRT1 (Homo sapiens)  > 200%
19  Cc1cncc(NC(=O)N2CC(C)(C)Oc3ccc(-c4cccc(N5CCCC5)c4)nc32)c1 [Compound 603]  SIRT1 (Homo sapiens)  > 200%
